These data points were gathered from paper PMC8294803.

System: zebrafish embryos
Conditions: 5μM through 120 hpf, malformation rate
metric name: pericardial oedemata, Mean (%)
Quick reminder: number only, in %, skip the unit.

Sample records with pericardial oedemata, Mean:
Provide the documented pericardial oedemata, Mean with zebrafish embryos as the system for "NC(C(F)(F)F)C(F)(F)F"
0.00

Provide the documented pericardial oedemata, Mean with zebrafish embryos as the system for "OCC(F)(F)C(F)(F)C(F)(F)C(F)(F)C(F)(F)C(F)(F)C(F)(F)C(F)(F)C(F)(F)C(F)(F)C(F)(F)F"
1.11

---
Provide the documented pericardial oedemata, Mean with zebrafish embryos as the system for "OCCC(F)(F)C(F)(F)C(F)(F)C(F)(F)C(F)(F)C(F)(F)F"
0.00

Provide the documented pericardial oedemata, Mean with zebrafish embryos as the system for "FC(F)=C(F)C(F)(F)C(F)(F)C(F)(F)C(F)F"
0.00

----------
Each entry below carries its recorded tail dysplasia, Mean.
System: zebrafish embryos
Settings: 5μM through 120 hpf, malformation rate
Quick reminder: number only, in %, skip the unit.

Sample records with tail dysplasia, Mean:
I am curious: what tail dysplasia, Mean value has been reported for C=CC(F)(F)C(F)(F)C(F)(F)C(F)(F)F [compound 59, 1H,1H,2H-Perfluoro-1-hexene] ?
0.00

I am curious: what tail dysplasia, Mean value has been reported for O=C(OC(=O)C(F)(F)C(F)(F)F)C(F)(F)C(F)(F)F [compound 43, Pentafluoropropanoic anhydride] ?
4.44

I am curious: what tail dysplasia, Mean value has been reported for OC(O)(C(F)C(O)(O)C(F)(F)F)C(F)(F)F [compound 66, 3H-Perfluoro-2,2,4,4-tetrahydroxypentane] ?
0.00

I am curious: what tail dysplasia, Mean value has been reported for C=CCOC(F)(C(F)(F)F)C(F)(F)F [compound 18, Allyl perfluoroisopropyl ether] ?
0.00

I am curious: what tail dysplasia, Mean value has been reported for O=C(O)C(F)(F)C(F)(F)C(F)(F)C(F)(F)C(F)(F)F [compound 20, Perfluorohexanoic acid] ?
0.00

---
I am curious: what tail dysplasia, Mean value has been reported for FC(F)OCC(F)(F)C(F)(F)F [compound 52, Difluoromethyl 1H,1H-perfluoropropyl] ?
0.00

I am curious: what tail dysplasia, Mean value has been reported for O=S(=O)([O-])C(F)(F)C(F)(F)C(F)(F)C(F)(F)F.[K+] [compound 57, Potassium perfluorobutanesulfonate] ?
0.00

I am curious: what tail dysplasia, Mean value has been reported for C[N+](C)(C)CCCNS(=O)(=O)C(F)(F)C(F)(F)C(F)(F)C(F)(F)C(F)(F)C(F)(F)C(F)(F)C(F)(F)F [compound 5] ?
0.00

I am curious: what tail dysplasia, Mean value has been reported for C=C(C)C(=O)OCCC(F)(F)C(F)(F)C(F)(F)C(F)(F)C(F)(F)C(F)(F)F [compound 2, 6:2 Fluorotelomer methacrylate] ?
4.44

I am curious: what tail dysplasia, Mean value has been reported for CC(O)C(F)(F)C(F)(F)F (centres unmarked) [compound 62, 1-Pentafluoroethylethanol] ?
1.11

----------
Test system: zebrafish embryos
Conditions: 5 µM, exposure through 120 hpf
metric name: Mortality (%)
Quick reminder: number only, in %, skip the unit.

Sample records with Mortality (%):
Provide the documented Mortality (%) with zebrafish embryos as the system for "NC(O)(C(F)(F)F)C(F)(F)F"
7.8

Provide the documented Mortality (%) with zebrafish embryos as the system for O=C(OC(=O)C(F)(F)C(F)(F)F)C(F)(F)C(F)(F)F [compound 43, Pentafluoropropanoic anhydride]
5.6

Provide the documented Mortality (%) with zebrafish embryos as the system for O=S(=O)([O-])C(F)(F)C(F)(F)C(F)(F)C(F)(F)C(F)(F)C(F)(F)F.[K+] [compound 26, Potassium perfluorohexanesulfonate]
3.3

Provide the documented Mortality (%) with zebrafish embryos as the system for NS(=O)(=O)C(F)(F)C(F)(F)C(F)(F)C(F)(F)C(F)(F)C(F)(F)C(F)(F)C(F)(F)F [compound 60, Perfluorooctanesulfonamide]
100

Provide the documented Mortality (%) with zebrafish embryos as the system for "O=CC(F)(F)C(F)(F)C(F)(F)F"
0

Provide the documented Mortality (%) with zebrafish embryos as the system for FCOC(C(F)(F)F)C(F)(F)F [compound 3, Sevoflurane, reference compound]
1.1

---
Provide the documented Mortality (%) with zebrafish embryos as the system for "O=C(O)C(F)(F)C(F)(F)C(F)(F)F"
4.4

----------
Each entry below carries its recorded spinal curvature, Mean.
Tested on: zebrafish embryos
Conditions: 5μM through 120 hpf, malformation rate
Quick reminder: number only, in %, skip the unit.

I am curious: what spinal curvature, Mean value has been reported for O=C(O)CCC(F)(F)C(F)(F)C(F)(F)C(F)(F)C(F)(F)F [compound 14, 2H,2H,3H,3H-Perfluorooctanoic acid] ?
0.00

---
I am curious: what spinal curvature, Mean value has been reported for NC(C(F)(F)F)C(F)(F)F [compound 71, 2-Amino-2H-perfluoropropane] ?
0.00

I am curious: what spinal curvature, Mean value has been reported for FC(F)OCC(F)(F)C(F)(F)F [compound 52, Difluoromethyl 1H,1H-perfluoropropyl] ?
0.00

I am curious: what spinal curvature, Mean value has been reported for C[N+](C)(C)CCCNS(=O)(=O)C(F)(F)C(F)(F)C(F)(F)C(F)(F)C(F)(F)C(F)(F)C(F)(F)C(F)(F)F [compound 5] ?
1.11

I am curious: what spinal curvature, Mean value has been reported for C=C(C)C(=O)OCCC(F)(F)C(F)(F)C(F)(F)C(F)(F)C(F)(F)C(F)(F)F [compound 2, 6:2 Fluorotelomer methacrylate] ?
1.11

I am curious: what spinal curvature, Mean value has been reported for O=C(O)C(F)(F)C(F)(F)C(F)(F)OC(F)(F)F [compound 28, Perfluoro(4-methoxybutanoic) acid] ?
2.22

I am curious: what spinal curvature, Mean value has been reported for O=C(OC(=O)C(F)(F)C(F)(F)F)C(F)(F)C(F)(F)F [compound 43, Pentafluoropropanoic anhydride] ?
0.00

----------
Tested on: zebrafish embryos
Conditions: 5μM through 120 hpf, malformation rate
Each entry below carries its recorded spinal curvature, Mean.
Quick reminder: number only, in %, skip the unit.

Sample records with spinal curvature, Mean:
I am curious: what spinal curvature, Mean value has been reported for O=CC(F)(F)C(F)(F)C(F)(F)C(F)F [compound 72, 5H-Perfluoropentanal] ?
0.00

I am curious: what spinal curvature, Mean value has been reported for CCN(CCO)S(=O)(=O)C(F)(F)C(F)(F)C(F)(F)C(F)(F)C(F)(F)C(F)(F)C(F)(F)C(F)(F)F [compound 9] ?
0.00

I am curious: what spinal curvature, Mean value has been reported for O=C(O)C(F)(OC(F)(F)C(F)(F)C(F)(F)F)C(F)(F)F (stereo not shown) [compound 37, Perfluoro-2-methyl-3-oxahexanoic acid] ?
0.00

Continue with the compound presented below.
I am curious: what spinal curvature, Mean value has been reported for CC(F)(F)CC(F)(F)F [compound 29, 1,1,1,3,3-Pentafluorobutane] ?
0.00

----------
Each entry below carries its recorded Mortality (%).
Test system: zebrafish embryos
Settings: 5 µM, exposure through 120 hpf
Quick reminder: number only, in %, skip the unit.

Sample records with Mortality (%):
Provide the documented Mortality (%) with zebrafish embryos as the system for C=CCOC(F)(C(F)(F)F)C(F)(F)F [compound 18, Allyl perfluoroisopropyl ether]
3.3

Provide the documented Mortality (%) with zebrafish embryos as the system for FC(F)=C(F)C(F)(F)C(F)(F)C(F)(F)C(F)F [compound 69, 6H-Perfluorohex-1-ene]
0

---
Provide the documented Mortality (%) with zebrafish embryos as the system for O=C(O)C(F)(F)C(F)(F)C(F)(F)C(F)(F)C(F)(F)F [compound 20, Perfluorohexanoic acid]
0

Provide the documented Mortality (%) with zebrafish embryos as the system for O=C(O)C(F)(F)C(F)(F)C(F)(F)OC(F)(F)F [compound 28, Perfluoro(4-methoxybutanoic) acid]
1.1

Provide the documented Mortality (%) with zebrafish embryos as the system for C=CC(F)(C(F)(F)F)C(F)(F)C(F)(F)F (stereo not shown) [compound 25, 2-Vinylperfluorobutane]
1.1

Provide the documented Mortality (%) with zebrafish embryos as the system for O=C(O)C(F)(OC(F)(F)C(F)(F)C(F)(F)F)C(F)(F)F (stereo not shown) [compound 37, Perfluoro-2-methyl-3-oxahexanoic acid]
1.1

Provide the documented Mortality (%) with zebrafish embryos as the system for O=C(O)C(F)(F)C(F)(F)C(F)F [compound 4, 4H-Perfluorobutanoic acid]
0

----------
Tested on: zebrafish embryos
Settings: 5μM through 120 hpf, malformation rate
metric name: spinal curvature, Mean (%)
Quick reminder: number only, in %, skip the unit.

Sample records with spinal curvature, Mean:
I am curious: what spinal curvature, Mean value has been reported for O=S(=O)([O-])C(F)(F)C(F)(F)C(F)(F)C(F)(F)F.[K+] [compound 57, Potassium perfluorobutanesulfonate] ?
0.00

I am curious: what spinal curvature, Mean value has been reported for O=S(=O)(F)C(F)(F)C(F)(F)C(F)(F)C(F)(F)F [compound 8, Perfluorobutanesulfonyl fluoride] ?
1.11

---
I am curious: what spinal curvature, Mean value has been reported for "OCC(F)(F)C(F)(F)C(F)(F)C(F)(F)C(F)(F)C(F)F" ?
0.00
